test system: Radical scavenging activity; assay: Antioxidant activity assessed as DPPH free radical scavenging activity after 30 mins; assay type: functional
pIC50: −log10 of the molar value.
Property measured: pIC50

C[C@@H]1O[C@@H](O[C@@H]2[C@@H](O)[C@H](OCCc3ccc(O)c(O)c3)O[C@H](COC(=O)/C=C/c3ccc(O)c(O)c3)[C@H]2O)[C@H](O)[C@H](O)[C@H]1O [ISOACTEOSIDE] ... 5.89
COc1cc([C@H]2OC[C@]3(O[C@@H]4O[C@H](CO)[C@@H](O)[C@H](O)[C@H]4O)[C@@H](c4ccc(O)c(OC)c4)OC[C@H]23)ccc1O ... 4.69
COc1cc([C@@H]2c3cc(O)c(OC)cc3C[C@H](CO)[C@H]2CO[C@@H]2O[C@H](CO)[C@@H](O)[C@H](O)[C@H]2O)ccc1O ... 4.98
